# SYSTEM UNDER TEST: Furin (Homo sapiens)
# ASSAY: Furin counterscreen qHTS for Zika virus inhibitors (AID 1347149); note: nearly all actives have a fitted effect of over 70% in size
# TEST PARAMETERS: furin enzymatic counterscreen, fluorogenic substrate; series mostly up to 57.5 µM
Results filed as inconclusive are left out. The source made the active and inactive calls. Calls come from the whole dose curve; as a rule, active = well fitted inhibition curve with a large enough effect; inconclusive = small, poorly fitted or top-dose-only effect; inactive = no such curve, though single readings can be large or run the other way.
Log the outcome using a class from 1.0 = active, 0.0 = inactive

Field: outcome | Entry: C/C=C/C=C/C=C/C(=O)O[C@@H]1[C@@H](OC)C2=C(C(=O)N(C(CCC(=O)O)C(=O)O)C2)[C@@]2(C)CCCC(C)(C)[C@H]12 (stereo partly specified)
0.0

Try this molecule too: "O=C(O)C1(c2ccc(-c3ccc(Cl)c(Cl)c3)c(F)c2)CC1"
0.0

Try this molecule too: Cc1ccc2[nH]c(=O)c(C3=NN(C(=O)CCC(=O)O)C(c4ccc(Br)cc4)C3)c(-c3ccccc3)c2c1 (stereo unspecified)
1.0

Try this molecule too: "COc1cc(Nc2nc3ccccc3nc2NS(=O)(=O)c2cccc(NC(=O)c3ccc(C)c(OC)c3)c2)cc(OC)c1"
0.0

Try this molecule too: C=C1C2CCC3CC2(CC(O)C2(O)C1CC(OC1OC(CO)C(O)C(O)C1O)C2(C)C)CC3(C)O (stereo unspecified)
0.0

Try this molecule too: C=CC1(C)C=C2CC[C@H]3[C@@](C)(C(=O)O)CCC[C@]3(C)C2CC1 (stereo partly specified)
0.0

----------
# Tested on: HEK293
# ASSAY: Cytotoxic Profiling of Annotated Libraries Using Quantitative High-Throughput Screening (AID 1296008); note: % is set by controls: 0 for no effect and ±100 for the full control effect; nearly all actives have a fitted effect of over 60% in size
# TEST PARAMETERS: Five cell lines viability, CellTiter-Glo ATP luminescence, 48-72 h; active compounds read low
Inconclusive results are not listed.
MEASURED METRIC: max response (%)
Supply the numeric figure in %, leaving out any unit text.

I'd like to know its max response. The compound in question is CC(C)(O)C1CC=C(C(=O)OC[C@H]2O[C@@H](OC(=O)C3=CCC(C(C)(C)O)CC3)[C@H](O)[C@@H](O)[C@@H]2O)CC1 (some centres not stated)
1.77

Try this compound too: O=C(Nc1ccccc1)Nc1ccc(-c2ccc(C(=O)C3CCCC3C(=O)O)cc2)cc1 (configuration not stated)
-9.05

Try this compound too: "CN(C)CCC[C@]1(c2ccc(F)cc2)OCc2cc(C#N)ccc21"
-1.92

Try this compound too: COC(=O)C1=COC(OC2OC(CO)C(O)C(O)C2O)C2C(COC(=O)/C=C/c3ccc(O)cc3)C(O)C(O)C12 (configuration not stated)
0.595

Try this compound too: CC1(C)CC[C@]2(C(=O)O)CC[C@]3(C)C(=CCC4[C@@]5(C)C[C@H](O)[C@H](O[C@@H]6O[C@H](CO)[C@@H](O)[C@H](O)[C@H]6O)[C@@](C)(CO)C5[C@H](O)C[C@]43C)[C@@H]2C1 (some centres not stated)
0.861

Try this compound too: COc1ccc(C2(O)c3ccccc3NC(=O)C2OC)cc1 (configuration not stated)
1.57

Try this compound too: "CC(C)=CCC/C(C)=C/CO[C@@H]1O[C@H](CO[C@@H]2OC[C@](O)(CO)[C@H]2O)[C@@H](O)[C@H](O)[C@H]1O"
-12.6

----------
Please respond with reported max response for every item in the list.
# Tested on: HEK293
# ASSAY: Cytotoxic Profiling of Annotated Libraries Using Quantitative High-Throughput Screening (AID 1296008); note: % is set by controls: 0 for no effect and ±100 for the full control effect; nearly all actives have a fitted effect of over 60% in size
# TEST PARAMETERS: Five cell lines viability, CellTiter-Glo ATP luminescence, 48-72 h; active compounds read low
# Method: Cell-based phenotypic screening is a commonly used approach to discover biological pathways, novel drug targets, chemical probes and high-quality hit-to-lead molecules. […] A pintool (Kalypsys) was used to transfer 23 nL of compound solution to the 1536-well assay plates. […] Plates were left at room temperature for 10 min before imaging the ATP-coupled luminescence using a ViewLux microplate imager (PerkinElmer, Waltham, MA).
Results filed as inconclusive are left out. Calls of active or inactive are those of the source. The call rests on the fitted dose curve; in most records, active means well fitted inhibition curve with a large enough effect; inconclusive means small, poorly fitted or top-dose-only effect; inactive means flat fitted curve, though single readings scatter.

I'd like to know its max response. The compound in question is COc1cccc(Cn2ncc3c4sc(S(C)=O)cc4n(C)c3c2=O)c1 (centres undefined)
-7.28% (inactive)

Try this compound too: CC[C@H]1OC(=O)[C@H](C)[C@@H](O[C@H]2C[C@@](C)(OC)[C@@H](O)[C@H](C)O2)C(C)[C@@H](O[C@@H]2O[C@H](C)C[C@H](N(C)C)[C@H]2O)[C@](C)(O)C[C@@H](C)CN(C)[C@H](C)[C@@H](O)[C@]1(C)O (some centres undefined)
1.9% (inactive)

Try this compound too: OCC1OC(Oc2cc(O)cc(/C=C/c3ccc(OC4OC(CO)C(O)C(O)C4O)cc3O)c2)C(O)C(O)C1O (centres undefined)
3.22% (inactive)

Try this compound too: "COc1ccc(/C=C/C(=O)N2CCCC2)cc1"
2.31% (inactive)
